molecular target: Transthyretin (Homo sapiens, UniProt P02766, V50M); assay: Inhibition of recombinant N-terminal hexa-histidine tagged TTR V30M mutant (unknown origin) expressed in Escherichia coli assessed as acid mediated amyloid-like fibril formation by measuring turbidity incubated for 1 week at 310K in presence of sodium acetate by absorbance based assay
Would you mind telling me the reported pKi of each entry?
One number for each entry, as −log10 of the molar value.

// worked examples, pKi included
Oc1cc(O)cc(/C=C/c2ccc(O)c(O)c2)c1 5.27
Oc1cc(O)cc(/C=C/c2ccc(O)cc2O)c1 5.35
Oc1ccc(/C=C/c2cc(O)cc(O)c2)cc1 5.57

IN: Which pKi reading was recorded for the compound "Oc1cc(O)cc(/C=C/c2c(O)cccc2O)c1" ?
OUT: 4.27

* * *

system: Transthyretin (Homo sapiens), P02766 [V50M]; assay: Inhibition of recombinant N-terminal hexa-histidine tagged TTR V30M mutant (unknown origin) expressed in Escherichia coli assessed as acid mediated amyloid-like fibril formation by measuring fluorescence intensity at 1 uM incubated for 4 days at 310K in presence of sodium acetate by thioflavin T based fluorescence spectrophotometric analysis; conditions: time 4.0 day
Active and inactive are the calls of the source. No cut-off for these calls is given here.
Result category, one only: Yes = active, No = inactive

compound	class
COc1ccc(/C=C/c2cc(OC)cc(OC)c2)cc1 [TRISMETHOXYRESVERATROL]	No
COc1cc(/C=C/c2cc(O)cc(O)c2)ccc1O	Yes
Oc1cc(O)cc(/C=C/c2c(O)cccc2O)c1	No
Oc1ccc(/C=C/c2cc(O)cc(O)c2)cc1 [RESVERATROL]	Yes
Oc1cc(O)cc(/C=C/c2ccc(O)c(O)c2)c1 [PICEATANNOL]	Yes

IN: Query: recorded result category for COc1cc(/C=C/c2ccc(OC)c(OC)c2)cc(OC)c1 [(E)-3,4,3',5'-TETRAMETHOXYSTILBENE] in this test
OUT: No

IN: Assay outcome for CC(=O)Oc1ccc(/C=C/c2cc(OC(C)=O)cc(OC(C)=O)c2)cc1 [TRIACETYLRESVERATROL] : what was it?
OUT: Yes
